- METHOD NOTES: Form risk assessment (FRA) crystallization workflow with XRPD form identification
- Assay type: physicochemical
- EXPERIMENTAL CONTEXT: forms from thermocycled slurrying
METRIC NAME: FRA_TC

See these solved cases before continuing.
>>> result_value("O=C(O)c1cc(-c2ccc(F)cc2F)ccc1O [Diflunisal]")
"I, II, III, IV"
>>> result_value("CCCCCCCCCCCCCCCCCC(=O)O [Stearic acid (E), Stearic acid]")
"B, C"
>>> result_value("Nc1ccc(S(=O)(=O)Nc2nccs2)cc1 [Sulfathiazole]")
"I, II, III, IV"
>>> result_value("NC(N)=Nc1nc(CSCCC(N)=NS(N)(=O)=O)cs1 [Famotidine]")
"A, C"
>>> result_value("NC(=O)N1c2ccccc2C=Cc2ccccc21 [Carbamazepine (E), Carbamazepine]")
"α, β, γ"

Prompt: Tell us which FRA_TC value is on record for COc1ccc2c(c1)c(CC(=O)O)c(C)n2C(=O)c1ccc(Cl)cc1 [Indomethacin]
Completion: α, β, γ
